Hey, just so you know, these numbers are from ChEMBL document CHEMBL1142730.

Quick reference for AUC among some compounds
- protocol-details: In vivo area under the concentration time curve value in wistar rat was determined at a dosage of 20 mg/kg
- Format: ADME, organism-based
- Set-up: dose 20 mg/kg

>  <compound-structure>
CC(C)CN(C[C@@H](O)[C@H](Cc1ccccc1)NC(=O)O[C@H]1CO[C@H]2OCC[C@H]21)S(=O)(=O)c1ccc2nc(N)oc2c1

>  <AUC [ng·h/mL]>
448

$$$$
>  <compound-structure>
CNc1nc2ccc(S(=O)(=O)N(CC(C)C)C[C@@H](O)[C@H](Cc3ccccc3)NC(=O)O[C@H]3CO[C@H]4OCC[C@H]43)cc2o1

>  <AUC [ng·h/mL]>
1200

$$$$
